tested on: mPer2Luc MEF; assay: PER2::LUC luminescence relative to vehicle control (fold of vehicle); higher = higher PER2::LUC reporter signal; conditions: time after treatment 24 h; 10 µM
The full ranking holds about 5,300 compounds; the median of “PER2::LUC luminescence relative to vehicle control” is about 0.96, and the highest 2% start at about 1.3. Only a selection was taken, and the highest values are over-represented in it overall.
ASSAY ENDPOINT: PER2::LUC luminescence

| STRUCTURE NOTATION | ASSAY ENDPOINT | VALUE MEASURED |
| --- | --- | --- |
| CC(C)c1onc(-c2c(Cl)cccc2Cl)c1COc1ccc(/C=C/c2cccc(C(=O)O)c2)c(Cl)c1 | PER2::LUC luminescence | 1.86 |
| O=C1c2ccccc2C(=O)C1c1ccc(Br)cc1 | PER2::LUC luminescence | 0.477 |
| O=c1ccn([C@@H]2O[C@H](CO)[C@@H](O)[C@H]2O)c(=O)[nH]1 | PER2::LUC luminescence | 0.979 |
| CC(C)[C@H](CO)Nc1nc(Sc2cccc(N)c2)c2ncn(C(C)C)c2n1 | PER2::LUC luminescence | 0.582 |
| N[C@@]1(C(=O)O)CN[C@@H](C(=O)O)C1 | PER2::LUC luminescence | 0.997 |

----------
tested on: mPer2Luc MEF; experiment: PER2::LUC luminescence relative to vehicle control (fold of vehicle); higher = higher PER2::LUC reporter signal; settings: time after treatment 30 h; 10 µM
In all, about 5,300 compounds were measured (“PER2::LUC luminescence relative to vehicle control”: median about 0.96, highest 2% from about 1.3 on). The sample holds the highest values, similar compounds and a random draw of the others, so the mix is not that of the screen.
ASSAY ENDPOINT: PER2::LUC luminescence

| MOLECULE | ASSAY ENDPOINT | VALUE MEASURED |
| --- | --- | --- |
| OC[C@H]1O[C@H](O[C@H]2C(O)[C@@H](O)[C@@H](OC[C@H]3O[C@@H]4O[C@H]5[C@H](O)[C@@H](O)[C@@H](O[C@H]6[C@H](O)[C@@H](O)[C@@H](O[C@H]7[C@H](O)[C@@H](O)[C@@H](O[C@H]8[C@H](O)[C@@H](O)[C@@H](O[C@H]9[C@H](O)[C@@H](O)[C@@H](O[C@H]%10[C@H](O)[C@@H](O)[C@@H](O[C@H]3[C@H](O)[C@H]4O)O[C@@H]%10CO)O[C@@H]9CO)O[C@@H]8CO)O[C@@H]7CO)O[C@@H]6CO)O[C@@H]5CO)O[C@@H]2CO)[C@H](O)[C@@H](O)[C@@H]1O (stereo partly specified) | PER2::LUC luminescence | 1.06 |

----------
tested on: mPer2Luc MEF; test: PER2::LUC luminescence relative to vehicle control (fold of vehicle); higher = higher PER2::LUC reporter signal; conditions: time after treatment 24 h; 10 µM
Over roughly 5,300 compounds, “PER2::LUC luminescence relative to vehicle control” has its median near 0.96; the highest 2% begin near 1.3. Only a selection was taken, and the highest values are over-represented in it overall.
param class (str): category from PER2::LUC luminescence; see ranges low band = under 0.9, middle band = from 0.9 up to 1, high band = 1 and over

| STRUCTURE NOTATION | MEASUREMENT TARGET | CATEGORY LABEL |
| --- | --- | --- |
| CN(Cc1ccccc1)c1ccc2cc(C(=O)O)c(=O)oc2c1 | mPer2Luc MEF | high band |
| Cc1oncc1C(=O)Nc1ccc(C(F)(F)F)cc1 | mPer2Luc MEF | high band |
| CO[C@@H]1[C@@H](O[C@@H]2O[C@H](C)[C@@H](O[C@H]3C[C@@](C)(O)[C@@H](OC(=O)CC(C)C)[C@H](C)O3)[C@H](N(C)C)[C@H]2O)[C@@H](CC=O)C[C@@H](C)[C@@H](O)/C=C/C=C/C[C@@H](C)OC(=O)C[C@H]1O | mPer2Luc MEF | middle band |
| CCOC(=O)c1cc(OC)c(OC)cc1NC(=O)c1cc(OC)c(OC)c(OC)c1 | mPer2Luc MEF | high band |
| O=C(Nc1ccc(C(O)(C(F)(F)F)C(F)(F)F)cc1)c1ccc(C(F)(F)F)cc1 | mPer2Luc MEF | low band |

----------
tested on: mPer2Luc MEF; assay: PER2::LUC luminescence relative to vehicle control (fold of vehicle); higher = higher PER2::LUC reporter signal; conditions: time after treatment 30 h; 10 µM
Whole data set: some 5,300 compounds, median “PER2::LUC luminescence relative to vehicle control” near 0.96, cut for the highest 2% near 1.3. The entries come from a sample that favours the highest values as a whole.
ASSAY ENDPOINT: PER2::LUC luminescence

| COMPOUND | VALUE MEASURED |
| --- | --- |
| CC(C)c1ccc2oc3nc(N)c(C(=O)O)cc3c(=O)c2c1 | 1.49 |
| O=C(O)CC1CCC(c2ccc(-c3ccc4nc(C(=O)NCc5ccc(OC(F)(F)F)cc5)cn4c3)cc2)CC1 (stereo not drawn) | 1.1 |
| NC(=O)c1cccc(N)c1 | 1.01 |
| CC12CCc3occc3C1CCC13CC(=O)C(CCC12)C3 (stereo not drawn) | 0.94 |
| Cc1ccc(NC(=O)c2cccc(N(C)C)c2)cc1NC(=O)c1ccc(O)cc1 | 1.56 |
| CCOC(=O)C1=Cc2ccc(C(F)(F)C(F)(F)F)cc2N=C(N)C1 | 1.05 |
| C[C@H](NC(=O)CNC(=O)[C@@H](NC(=O)[C@H](Cc1ccccc1)NC(=O)CNC(=O)CNC(=O)[C@@H](N)Cc1ccccc1)[C@@H](C)O)C(=O)N[C@@H](CCCN=C(N)N)C(=O)N[C@@H](CCCCN)C(=O)N[C@@H](CO)C(=O)N[C@@H](C)C(=O)N[C@@H](CCCN=C(N)N)C(=O)N[C@@H](CCCCN)C(N)=O | 0.922 |
| CC(=O)c1ccc(S(=O)(=O)NC(=O)NC2CCCCC2)cc1 | 0.908 |

----------
test system: mPer2Luc MEF; experiment: PER2::LUC luminescence relative to vehicle control (fold of vehicle); higher = higher PER2::LUC reporter signal; conditions: time after treatment 24 h; 10 µM
Over roughly 5,300 compounds, “PER2::LUC luminescence relative to vehicle control” has its median near 0.96; the highest 2% begin near 1.3. For the sample, the highest values were picked, then their nearest neighbours and some compounds at random.
PER2::LUC luminescence for assorted molecules
ASSAY ENDPOINT: PER2::LUC luminescence

| MOLECULE | VALUE MEASURED |
| --- | --- |
| Cc1cc2nc3c(=O)[nH]c(=O)nc-3n(C[C@H](O)[C@H](O)[C@H](O)COP(=O)(O)O)c2cc1C | 1.22 |
| CCCCN1CCCC1CNC(=O)c1cc(C#N)c2ccccc2c1OC (stereo not given) | 1 |
| C=CCSSSCC=C | 1.32 |
| CC(C)(C)[Si](C)(C)Oc1ccc2oc(=O)c3c(c2c1)CCCN3 | 1.14 |
| COc1cc(CC(=O)O)ccc1O | 0.99 |
| CC(=O)NC[C@H]1CN(c2ccc(-c3ccc(CNCc4cnn[nH]4)cc3)c(F)c2)C(=O)O1 | 1.03 |
| Cn1nnc(-c2ccc(-c3ccc(N4C[C@@H](CO)OC4=O)cc3F)cn2)n1 | 1.01 |
| COC(=O)N[C@H](C(=O)NNC[C@H](O)[C@H](Cc1ccccc1)NC(=O)[C@@H](NC(=O)OC)C(C)(C)C)C(C)(C)C | 0.974 |
| O=C(CCc1ccc(O)cc1)c1c(O)cc(O)cc1OC1OC(CO)C(O)C(O)C1O (stereo not given) | 1.02 |
| C=CCCCCCCCCCCCC(O)CC(O)COC(C)=O (stereo not given) | 0.894 |

----------
test system: mPer2Luc MEF; experiment: PER2::LUC luminescence relative to vehicle control (fold of vehicle); higher = higher PER2::LUC reporter signal; conditions: time after treatment 24 h; 10 µM
Over roughly 5,300 compounds, “PER2::LUC luminescence relative to vehicle control” has its median near 0.96; the highest 2% begin near 1.3. Shown is part of a subset that was picked to be rich in the highest values.
param class (str): category from PER2::LUC luminescence; see ranges range 1 = under 0.9, range 2 = from 0.9 up to 1, range 3 = 1 and over

| STRUCTURE NOTATION | CATEGORY LABEL |
| --- | --- |
| CN1CC(=O)N=C1NC(=O)Nc1cccc(Cl)c1 | range 2 |
| CC1(C)O[C@@H]2C[C@H]3[C@@H]4CCC5=CC(=O)C=C[C@]5(C)[C@@]4(F)[C@@H](O)C[C@]3(C)[C@]2(C(=O)CO)O1 | range 1 |
| O=C(NCc1cccc(O)c1)c1cc2cc(F)ccc2[nH]1 | range 2 |
| CS(=O)(=O)c1ccc(C(=O)Nc2ccc(Cl)c(-c3ccccn3)c2)c(Cl)c1 | range 3 |
| CC(=O)OCC(=O)[C@@]12OC3(CCCC3)O[C@@H]1C[C@H]1[C@@H]3CCC4=CC(=O)C=C[C@]4(C)[C@@]3(F)[C@@H](O)C[C@@]12C | range 1 |
| O=C(Nc1cccc(Cl)c1)c1ccccn1 | range 3 |

Origin of measurements: the supplement of paper PMC9334596
